- assay_info: qHTS for Inhibitors of Inflammasome Signaling: IL-1-beta AlphaLISA Primary Screen; further: on the % scale 0 is the no-effect control and ±100 the full control effect
- condition: THP-1 LPS/ATP IL-1B secretion, 16 h; at 57.5 µM, hits give low values
The whole screen tested about 360,000 compounds, of which about 17,000 (4.7%) were called active. Inconclusive results (about 5%) are left out. This is one part of a sample in which actives are shown more often than they occur.
measurement_kind: activity change (%)
Only the number, expressed in %, is required.

Example cases with answers are listed next.
query: Suppose we examine the molecule COc1ccccc1/C=C1\SC(=O)N(CCC(=O)N(C)C2CCS(=O)(=O)C2)C1=O (stereo unspecified) ; what activity change value has been reported?
result: -15.1

query: Using the record for CS(=O)(=O)N1CCCC(C(=O)Nc2ccccc2C(F)(F)F)C1 (stereo unspecified) , report its activity change.
result: 8.14

query: So what's the measured activity change for this one? CCC(=O)N1CCCC1(C)C(=O)Nc1ccc2c(c1)CCN2C(C)=O (stereo unspecified)
result: -2.74

query: Quick one: activity change of `O=C(COc1ccccc1F)Nc1nc(-c2ccccn2)cs1` ?
result: 33.3

query: Entry `O=C(/C=C\c1ccc2c(c1)OCO2)NC1(C(=O)Nc2ccc3c(c2)OCCO3)CCCCC1` has what activity change?
result: -1.03

Below: the item to evaluate.
query: I would be grateful if you could share the reported activity change for `CC(=O)Nc1cccc(-c2csc(Nc3cccc(C)n3)n2)c1` .
result: -56.6
